Source listed as patent US20250026813A1.

Biological target: SARS-CoV-2 spike protein bearing furin mutation and truncation in retention sequence, on pseudoviral particles (SARS-CoV-2, UniProt P0DTC2 14-1255)
Assay: cell-based or functional assay
Overview of reported PV neutralization % (Ab 1 ug/mL) across a group of binders:
MEASURE: PV neutralization % (Ab 1 ug/mL) (%)

{"columns": ["BINDER", "OBSERVED MEASUREMENT"],
 "data": [
  ["YANG-1114 (antibody, V domains shown) VH: EVHLVESVGGLVKPGGSLRLSCAASGFTFSSYSMNWVRQAPGKGLEWVSSISTGSSYIFYADSVKGRFTISRDNAKNSLYLQMNSLRAEDTAVYYCAKTGDLPFFDYWGQGTLVTVSS VL: QSALTQPASVSGSPGQSITISCTGTSSDVGRYNYVSWYQQHPGKAPKLMIYEVSNRPSGVSNRFSGSKSGNTASLTISGLQAEDEADYYCSSYTSSSTMVFGGGTKLTVL", 93.2],
  ["YANG-1206 (antibody, V domains shown) VH: QVHLVESGGGMVQPGRSLRLSCAASGFTFSIYAMHWVRQAPGKGLEWVAVISYDGSNKYYADSVKGRFTISRDNSKNTLYLQMNSLRAEDTAVYYCAKVYGGSYWGGFDYWGQGTLVTVSS VL: QSVLTQPPSVSGAPGQRVTISCTGTSSNIGSIYDVHWYQQLPGTAPKLLIYGNSNRPSGVPDRFSGSKSGTSASLAITGLQAEDEADYYCQSYDTSLSGSWVFGGGTKLNVL", 45.9],
  ["YANG-1201 (antibody, V domains shown) VH: QVQLQESGPGLVKPSGTLSLTCAVSGDSISNSKWWSWVRQPPGKGLEWIGEIFHSGSTNYNPSLKSRVTISVDKSQNQFSLKLNSVTAADTAVYYCARSASLYYYYGVDVWGQGTTVTVSS VL: EIVLTQSPGTLSLSPGERATLSCRASQSVSNNYLAWYQQKPGQAPRLLIYGTSRRDTGIPDRFSGSGSGTDFTLTISRLEPEDFAVYYCEQYGSLPRTFGQGTKVEIK", 40.6],
  ["YANG-1109 (antibody, V domains shown) VH: EVQLVESGGGLIQPGGSLRLSCGVSGLTVSRNYMNWVRQAPGKGLEWVSVIYSGGSTFYADSVKGRFTISRDNSKNTLYLQMISLRAEDSGVYYCAREGFGMDVWGQGTTVTVSS VL: DIQLTQSPSFLSASVGDRVTITCWASQGISNYLAWYQQKPGKAPKLLIYSASTLQSGVPSRFSGSGSGTEFTLTISNLQPADIATYYCQLLNSHPCSFGQGTKLEIK", 99.4],
  ["YANG-1105 (antibody, V domains shown) VH: EVQVVESGGGLIQPGGSLRLSCAASGITVSRNYMNWVRQAPGKGLEWVSVIYSGGSTFYADSVKGRFTISRDNSKNTLYLQMNSLRADDTGVYYCAREGYGMDVWGQGTTVTVSS VL: DIQLTQSPSFLSASVGDRVTITCWASQGISSYLAWYQQKPGKAPKLLIYSASTLQSGVPSRFSGSGSGTEFTLTINSLQPEDFATYYCQQLNSHPCSFGQGTKLEIK", 97.2]
]}
